Target: Savinase (Lederbergia lenta, UniProt P29600)
Sequence (P29600 1-269): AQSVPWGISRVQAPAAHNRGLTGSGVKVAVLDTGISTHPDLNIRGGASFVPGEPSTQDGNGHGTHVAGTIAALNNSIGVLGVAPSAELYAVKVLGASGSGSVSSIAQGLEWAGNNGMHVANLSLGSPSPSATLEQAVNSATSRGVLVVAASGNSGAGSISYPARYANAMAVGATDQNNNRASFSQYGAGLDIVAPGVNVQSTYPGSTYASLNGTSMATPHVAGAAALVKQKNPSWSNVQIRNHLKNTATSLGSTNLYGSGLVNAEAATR
Property Measured: Ki (µM)

[a] O=Cc1ccc(B(O)O)cc1
[b] CC(=O)Nc1cccc(B(O)O)c1
For the pair a and b , which entry has the numerically smaller recorded Ki? Give the chosen item's label as your response. a

----------
molecular target: Savinase (Lederbergia lenta, UniProt P29600); assay: Storage Stability Test in Liquid Detergent (Detergent base, US-type), Example 3; format: biochemical; parameters: purchased Novo Nordisk A/S; settings: relative to Boric Acid; US-type detergent; 1% w/w Savinase (14 KNPU/g); stabilizer 5 mmole/kg (boric acid 160 mmole/kg); 0, 3, 7 and 14 days at 30° C.
Property Measured: Improvement Factor (IFI)

{"Molecule": "O=Cc1ccc(B(O)O)cc1 [4-formyl-phenyl-boronic acid, 4-Formyl-phenyl-boronic acid]", "Target Desc": "Savinase (Lederbergia lenta, UniProt P29600)", "Improvement Factor (IFI)": 1000}
{"Molecule": "O=Cc1cccc(B(O)O)c1 [3-formyl-phenyl-boronic acid]", "Target Desc": "Savinase (Lederbergia lenta, UniProt P29600)", "Improvement Factor (IFI)": 230}

[1] CC(=O)Nc1cccc(B(O)O)c1 [acetamidophenyl boronic acid]
[2] O=Cc1ccccc1B(O)O [2-formyl-phenyl-boronic acid]
For the pair 1 and 2 , which entry has the numerically smaller recorded Improvement Factor (IFI)? Give the chosen item's label as your response. 2
